Experiment: Lipophilicity, log D of the compound at pH 7.4
Type: physicochemical
Settings: buffer, read-out: logD
Listed next: entries and their corresponding logD.
The reply should be a number, written without any unit.

STRUCTURE SMILES STRING	logD
[11CH3]Oc1ccc(C(=O)CCCCCCC(=O)NO)cc1	0.5

Now examine the next entry.
What does the record list as logD for Nc1ccccc1NC(=O)c1ccc(CN[11C](=O)OCc2cccnc2)cc1 ?
1.79
